- testedTarget: UniProtKB P00533
- Sequence (P00533 25-1210): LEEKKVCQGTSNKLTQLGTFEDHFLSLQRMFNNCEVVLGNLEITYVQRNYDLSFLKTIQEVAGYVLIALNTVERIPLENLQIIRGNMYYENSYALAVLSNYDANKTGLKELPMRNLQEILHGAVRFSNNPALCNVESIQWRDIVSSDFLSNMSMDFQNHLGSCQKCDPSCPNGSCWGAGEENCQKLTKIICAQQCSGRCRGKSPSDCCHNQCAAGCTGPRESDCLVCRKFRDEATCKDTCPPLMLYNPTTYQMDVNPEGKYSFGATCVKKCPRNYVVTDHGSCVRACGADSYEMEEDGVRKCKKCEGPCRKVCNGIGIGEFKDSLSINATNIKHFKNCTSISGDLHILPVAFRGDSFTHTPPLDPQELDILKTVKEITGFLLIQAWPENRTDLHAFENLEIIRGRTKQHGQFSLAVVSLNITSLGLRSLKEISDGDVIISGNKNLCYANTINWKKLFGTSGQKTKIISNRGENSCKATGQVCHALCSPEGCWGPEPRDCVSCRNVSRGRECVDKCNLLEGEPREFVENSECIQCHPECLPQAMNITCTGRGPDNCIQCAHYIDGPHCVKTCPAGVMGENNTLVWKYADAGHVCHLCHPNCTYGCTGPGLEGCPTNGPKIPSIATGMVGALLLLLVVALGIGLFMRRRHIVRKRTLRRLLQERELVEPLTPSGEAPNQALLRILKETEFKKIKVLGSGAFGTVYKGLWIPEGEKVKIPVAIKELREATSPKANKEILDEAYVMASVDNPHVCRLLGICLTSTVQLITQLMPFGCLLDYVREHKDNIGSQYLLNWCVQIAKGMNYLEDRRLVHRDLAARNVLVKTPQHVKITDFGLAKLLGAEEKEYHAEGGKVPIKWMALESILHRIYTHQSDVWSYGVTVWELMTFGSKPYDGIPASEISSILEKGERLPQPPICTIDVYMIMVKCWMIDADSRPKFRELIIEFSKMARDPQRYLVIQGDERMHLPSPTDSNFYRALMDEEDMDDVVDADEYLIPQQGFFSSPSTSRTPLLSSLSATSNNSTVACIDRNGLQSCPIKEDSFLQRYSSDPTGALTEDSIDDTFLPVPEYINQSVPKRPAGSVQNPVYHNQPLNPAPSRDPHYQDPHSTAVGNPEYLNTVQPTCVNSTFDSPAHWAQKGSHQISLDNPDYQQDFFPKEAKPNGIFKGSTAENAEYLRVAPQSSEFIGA
- assayMethodText: Cellular Phosphorylation Assay, Assay 5 (EGF-stimulated EGFR phosphorylation, NIH 3T3 cells)
- Type: cell-based
- experimentalSetup: cellular EGFR WT phosphorylation, EGF-stimulated
pIC50: −log10 of the molar value.
propertyLabel: pIC50

1) C=CC(=O)N1CCN(c2ccc3ncnc(Nc4cc(C)c(Oc5ccc6c(c5)ncn6C)cc4F)c3n2)C[C@H]1C(C)C | ≤ 5.30
2) C=CC(=O)N1C[C@H]2CC[C@@H]1C[C@H]2c1ccc2ncnc(Nc3ccc(Oc4cnc5c(c4)ncn5C)c(C)c3F)c2n1 | ≤ 5.30
3) C=CC(=O)N1CCN(c2ccc3ncnc(Nc4ccc(Oc5ccn6ncnc6c5)c(C)c4F)c3n2)C[C@@H]1C(F)F (racemic) | 6.62
4) C=CC(=O)N1C[C@H]2CC[C@@H]1[C@H](c1ccc3ncnc(Nc4cc(C)c(Oc5ccn6ncnc6c5)cc4F)c3n1)C2 | ≤ 5.30
5) C=CC(=O)N1CC2(CCN2c2ccc3ncnc(Nc4ccc(Oc5ccn6ncnc6c5)c(C)c4F)c3n2)C1 | ≤ 5.30

Please examine the following record next.
query: Quick one: pIC50 of `C=CC(=O)N1CCN(c2ccc3ncnc(Nc4ccc(Oc5ccn6ncnc6c5)c(C)c4F)c3n2)C[C@@H]1CC` ?
result: ≤ 5.30
